Numbers sourced from ChEMBL document CHEMBL3351767.

study.target: Serine/threonine-protein kinase PLK3 (Homo sapiens, UniProt Q9H4B4)
Sequence (Q9H4B4 whole entry): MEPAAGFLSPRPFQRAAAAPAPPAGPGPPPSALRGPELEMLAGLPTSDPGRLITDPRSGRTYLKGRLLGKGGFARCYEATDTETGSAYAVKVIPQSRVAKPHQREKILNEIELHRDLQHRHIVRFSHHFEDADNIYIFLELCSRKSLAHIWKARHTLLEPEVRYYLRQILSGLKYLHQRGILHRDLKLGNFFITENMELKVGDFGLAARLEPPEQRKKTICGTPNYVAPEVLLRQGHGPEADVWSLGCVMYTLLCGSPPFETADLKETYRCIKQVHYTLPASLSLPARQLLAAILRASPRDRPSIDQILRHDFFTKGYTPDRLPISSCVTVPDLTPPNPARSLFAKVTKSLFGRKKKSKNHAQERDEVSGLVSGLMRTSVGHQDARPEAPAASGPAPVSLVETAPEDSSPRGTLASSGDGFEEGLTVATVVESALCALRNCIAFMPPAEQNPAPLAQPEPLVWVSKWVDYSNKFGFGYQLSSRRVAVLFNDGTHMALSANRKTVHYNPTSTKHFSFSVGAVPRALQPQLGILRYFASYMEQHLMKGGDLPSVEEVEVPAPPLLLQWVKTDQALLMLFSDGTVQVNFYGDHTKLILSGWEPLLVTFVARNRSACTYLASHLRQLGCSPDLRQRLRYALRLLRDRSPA
pIC50: −log10 of the molar value.
experimental.endpoint: pIC50

{"compound": "O=C1Nc2ccccc2[C@]12C[C@H]2c1ccc2c(/C=C/c3ccncc3)n[nH]c2c1 (relative stereo)", "endpoint.value": "< 4.00"}

====

List of IC50 tested on Cytochrome P450 3A4 (Homo sapiens, UniProt P08684).
Sequence (P08684 whole entry): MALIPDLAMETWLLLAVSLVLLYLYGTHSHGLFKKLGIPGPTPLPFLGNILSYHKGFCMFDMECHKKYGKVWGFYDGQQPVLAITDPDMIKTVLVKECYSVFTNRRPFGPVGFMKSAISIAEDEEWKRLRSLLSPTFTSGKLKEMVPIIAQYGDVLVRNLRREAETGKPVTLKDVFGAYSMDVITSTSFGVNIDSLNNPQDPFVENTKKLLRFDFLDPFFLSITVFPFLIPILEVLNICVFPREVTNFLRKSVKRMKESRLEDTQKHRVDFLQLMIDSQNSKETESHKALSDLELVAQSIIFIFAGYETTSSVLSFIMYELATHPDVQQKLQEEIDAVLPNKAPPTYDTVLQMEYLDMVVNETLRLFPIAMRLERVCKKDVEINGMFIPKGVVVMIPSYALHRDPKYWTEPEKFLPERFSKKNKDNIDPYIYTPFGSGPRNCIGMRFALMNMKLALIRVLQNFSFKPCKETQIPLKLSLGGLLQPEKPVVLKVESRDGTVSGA
experimental.endpoint: IC50 (µM)

{"compound": "COc1ccc2c(c1)[C@]1(C[C@H]1c1ccc3c(/C=C/c4ccc(N5CCN(C)CC5)nc4)n[nH]c3c1)C(=O)N2 (relative stereo)", "study.target": "Cytochrome P450 3A4 (Homo sapiens, UniProt P08684)", "experimental.endpoint": "IC50", "unit.abbrev": "µM", "comparison.symbol": "=", "endpoint.value": 2.1}
{"compound": "CN(C)Cc1ccc(/C=C/c2n[nH]c3cc(/C=C4/C(=O)Nc5ccccc54)ccc23)cc1", "study.target": "Cytochrome P450 3A4 (Homo sapiens, UniProt P08684)", "experimental.endpoint": "IC50", "unit.abbrev": "µM", "comparison.symbol": "=", "endpoint.value": 0.94}
{"compound": "O=C1Nc2ccccc2/C1=C\\c1ccc2c(/C=C/c3ccncc3)n[nH]c2c1", "study.target": "Cytochrome P450 3A4 (Homo sapiens, UniProt P08684)", "experimental.endpoint": "IC50", "unit.abbrev": "µM", "comparison.symbol": "=", "endpoint.value": 1}
{"compound": "COc1ccc2c(c1)/C(=C\\c1ccc3c(/C=C/c4ccc(N5CCN(C)CC5)nc4)n[nH]c3c1)C(=O)N2", "study.target": "Cytochrome P450 3A4 (Homo sapiens, UniProt P08684)", "experimental.endpoint": "IC50", "unit.abbrev": "µM", "comparison.symbol": ">", "endpoint.value": 1}
{"compound": "O=C1Nc2ccccc2[C@]12C[C@H]2c1ccc2cn[nH]c2c1 (relative stereo)", "study.target": "Cytochrome P450 3A4 (Homo sapiens, UniProt P08684)", "experimental.endpoint": "IC50", "unit.abbrev": "µM", "comparison.symbol": ">", "endpoint.value": 10}
{"compound": "O=C1Nc2ccccc2/C1=C/c1ccc2cn[nH]c2c1", "study.target": "Cytochrome P450 3A4 (Homo sapiens, UniProt P08684)", "experimental.endpoint": "IC50", "unit.abbrev": "µM", "comparison.symbol": "=", "endpoint.value": 10}
{"compound": "COc1ccc2c(c1)[C@]1(C[C@H]1c1ccc3c(/C=C/c4ccc(CN5CCOCC5)cc4)n[nH]c3c1)C(=O)N2 (relative stereo)", "study.target": "Cytochrome P450 3A4 (Homo sapiens, UniProt P08684)", "experimental.endpoint": "IC50", "unit.abbrev": "µM", "comparison.symbol": ">", "endpoint.value": 1}

====

Tested on: MCF7
experiment.notes: Cytotoxicity against human MCF7 cells after 5 days by SRB assay
Format: functional
run.parameters: MCF7, 120 h
experimental.endpoint: GI50 (nM)

{"molecule": "Cc1ccc(/C=C/c2n[nH]c3cc([C@@H]4C[C@@]45C(=O)Nc4ccccc45)ccc23)cn1", "comparison.symbol": "=", "endpoint.value": 280}
{"molecule": "CCc1ccc2c(c1)[C@]1(C[C@H]1c1ccc3c(/C=C/c4ccc(CN(C)C)cc4)n[nH]c3c1)C(=O)N2 (relative stereo)", "comparison.symbol": "=", "endpoint.value": 240}
{"molecule": "COc1ccc2c(c1)[C@]1(C[C@H]1c1ccc3c(/C=C/c4cc(F)c(CN5CCOCC5)c(F)c4)n[nH]c3c1)C(=O)N2 (relative stereo)", "comparison.symbol": "=", "endpoint.value": 50}
{"molecule": "O=C1Nc2ccccc2[C@]12C[C@H]2c1ccc2c(/C=C/c3ccncc3)n[nH]c2c1 (relative stereo)", "comparison.symbol": "=", "endpoint.value": 600}
{"molecule": "O=C1Nc2ccccc2[C@]12C[C@H]2c1ccc2cn[nH]c2c1 (relative stereo)", "comparison.symbol": "=", "endpoint.value": 16000}
{"molecule": "O=C1Nc2ccccc2[C@]12C[C@H]2c1ccc2c(/C=C/c3ccc(CN4CCCCC4)cc3)n[nH]c2c1 (relative stereo)", "comparison.symbol": "=", "endpoint.value": 600}
{"molecule": "CN(C)Cc1ccc(/C=C/c2n[nH]c3cc([C@@H]4C[C@@]45C(=O)Nc4ccc(OC(F)F)cc45)ccc23)cc1 (relative stereo)", "comparison.symbol": "=", "endpoint.value": 25}
{"molecule": "O=C1Nc2ccccc2/C1=C/c1ccc2cn[nH]c2c1", "comparison.symbol": "=", "endpoint.value": 5300}
{"molecule": "O=C1Nc2ccc(F)cc2[C@]12C[C@H]2c1ccc2c(/C=C/c3ccc(CN4CCOCC4)cc3)n[nH]c2c1", "comparison.symbol": "=", "endpoint.value": 900}
{"molecule": "O=C1Nc2ccccc2[C@]12C[C@H]2c1ccc2c(/C=C/c3ccc(CN4CCOCC4)cc3)n[nH]c2c1 (relative stereo)", "comparison.symbol": "=", "endpoint.value": 10}
{"molecule": "CNC(=O)c1ccccc1Sc1ccc2c(/C=C/c3ccccn3)n[nH]c2c1 [AXITINIB]", "comparison.symbol": "=", "endpoint.value": 2300}
{"molecule": "COc1ccc2c(c1)/C(=C\\c1ccc3c(/C=C/c4ccc(N5CCN(C)CC5)nc4)n[nH]c3c1)C(=O)N2", "comparison.symbol": "<", "endpoint.value": 10}
{"molecule": "CN(C)Cc1ccc(/C=C/c2n[nH]c3cc([C@@H]4C[C@@]45C(=O)Nc4ccc(Cl)cc45)ccc23)cc1 (relative stereo)", "comparison.symbol": "=", "endpoint.value": 0.01}
{"molecule": "CN(C)Cc1ccc(/C=C/c2n[nH]c3cc([C@@H]4C[C@@]45C(=O)Nc4ccccc45)ccc23)cc1 (relative stereo)", "comparison.symbol": "<", "endpoint.value": 10}
{"molecule": "Cc1ccc2c(c1)[C@]1(C[C@H]1c1ccc3c(/C=C/c4ccc(CN(C)C)cc4)n[nH]c3c1)C(=O)N2 (relative stereo)", "comparison.symbol": "=", "endpoint.value": 0.01}

====

Test system: MDA-MB-468
experiment.notes: Cytotoxicity against human MDA-MB-468 cells after 5 days by SRB assay
Format: functional
run.parameters: MDA-MB-468, 120 h
experimental.endpoint: GI50 (nM)

{"compound": "COc1ccc2c(c1)[C@]1(C[C@H]1c1ccc3c(/C=C/c4ccc(N5CCN(C)CC5)nc4)n[nH]c3c1)C(=O)N2 (relative stereo)", "experimental.endpoint": "GI50", "comparison.symbol": "=", "endpoint.value": 6}
{"compound": "CN(C)Cc1ccc(/C=C/c2n[nH]c3cc([C@@H]4C[C@@]45C(=O)Nc4ccc(OC(F)F)cc45)ccc23)cc1 (relative stereo)", "experimental.endpoint": "GI50", "comparison.symbol": "=", "endpoint.value": 5}
{"compound": "CNC(=O)c1ccccc1Sc1ccc2c(/C=C/c3ccccn3)n[nH]c2c1", "experimental.endpoint": "GI50", "comparison.symbol": "=", "endpoint.value": 2800}
{"compound": "CN(C)Cc1ccc(/C=C/c2n[nH]c3cc([C@@H]4C[C@@]45C(=O)Nc4ccc(F)cc45)ccc23)cc1 (relative stereo)", "experimental.endpoint": "GI50", "comparison.symbol": "=", "endpoint.value": 10}
{"compound": "CN(C)Cc1ccc(/C=C/c2n[nH]c3cc([C@@H]4C[C@@]45C(=O)Nc4ccccc45)ccc23)cc1 (relative stereo)", "experimental.endpoint": "GI50", "comparison.symbol": "<", "endpoint.value": 10}
{"compound": "O=C1Nc2ccccc2[C@]12C[C@H]2c1ccc2c(/C=C/c3ccncc3)n[nH]c2c1 (relative stereo)", "experimental.endpoint": "GI50", "comparison.symbol": "=", "endpoint.value": 360}
{"compound": "O=C1Nc2ccccc2[C@]12C[C@H]2c1ccc2c(/C=C/c3cccnc3)n[nH]c2c1 (relative stereo)", "experimental.endpoint": "GI50", "comparison.symbol": "=", "endpoint.value": 9}

====

System: MCF7
experiment.notes: Cytotoxicity against human MCF7 cells after 5 days by SRB assay
Assay type: functional
run.parameters: MCF7, 120 h

{"molecule": "O=C1Nc2ccccc2[C@]12C[C@H]2c1ccc2c(/C=C/c3cccnc3)n[nH]c2c1 (relative stereo)", "GI50": "3600 nM"}
{"molecule": "O=C1Nc2ccccc2[C@]12C[C@H]2c1ccc2c(/C=C/c3ccc(CN4CCCCC4)nc3)n[nH]c2c1 (relative stereo)", "GI50": "0.01 nM"}
{"molecule": "COc1ccc2c(c1)[C@]1(C[C@H]1c1ccc3c(/C=C/c4ccc(N5CCN(C)CC5)nc4)n[nH]c3c1)C(=O)N2 (relative stereo)", "GI50": "10 nM"}
{"molecule": "CN1CCN(Cc2ccc(/C=C/c3n[nH]c4cc([C@@H]5C[C@@]56C(=O)Nc5ccccc56)ccc34)cc2)CC1 (relative stereo)", "GI50": "10 nM"}
{"molecule": "CN(C)Cc1ccc(/C=C/c2n[nH]c3cc([C@@H]4C[C@@]45C(=O)Nc4ccc(F)cc45)ccc23)cc1 (relative stereo)", "GI50": "100 nM"}
